The measured values listed here are drawn from ChEMBL document CHEMBL1221273.

# procedure.details: Clearance in Beagle dog at 3 mg/kg, po
# Type: ADME, organism-based, Canis lupus familiaris
# Set-up: dose 3 mg/kg, route oral
# condition.description: in vivo
measured.quantity: CL/F (mL/min/kg)

structure.string	result.unit	data.value
COCCCc1ccc(Cl)c(CN(C(=O)[C@@H](CN)Cc2ccc(OCCOc3c(Cl)cc(C)cc3Cl)cc2)C2CC2)c1	mL/min/kg	16

====

# procedure.details: Oral bioavailability in Beagle dog at 3 mg/kg
# Type: ADME, organism-based, Canis lupus familiaris
# condition.description: in vivo
measured.quantity: bioavailability (%)

structure.string	data.value
COCCCc1ccc(Cl)c(CN(C(=O)[C@@H](CN)Cc2ccc(OCCOc3c(Cl)cc(C)cc3Cl)cc2)C2CC2)c1	32

====

# procedure.details: Half life in Beagle dog at 3 mg/kg, po
# Type: ADME, organism-based, Canis lupus familiaris
# Design: dose 3 mg/kg, route oral
# condition.description: in vivo
measured.quantity: half-life (h)

structure.string	result.unit	data.value
COCCCc1ccc(Cl)c(CN(C(=O)[C@@H](CN)Cc2ccc(OCCOc3c(Cl)cc(C)cc3Cl)cc2)C2CC2)c1	h	17

====

# procedure.details: Intrinsic clearance in human liver microsome
# Type: ADME
# condition.description: liver microsomes
measured.quantity: CLint scaled (mL/min/kg)

structure.string	data.value
COCCCc1ccc(Cl)c(CN(C(=O)[C@@H](CN)Cc2ccc(OCCOc3c(Cl)cc(C)cc3Cl)cc2)C2CC2)c1	15

====

# experimental.target: Cytochrome P450 3A4 (Homo sapiens)
# Sequence (P08684 whole entry): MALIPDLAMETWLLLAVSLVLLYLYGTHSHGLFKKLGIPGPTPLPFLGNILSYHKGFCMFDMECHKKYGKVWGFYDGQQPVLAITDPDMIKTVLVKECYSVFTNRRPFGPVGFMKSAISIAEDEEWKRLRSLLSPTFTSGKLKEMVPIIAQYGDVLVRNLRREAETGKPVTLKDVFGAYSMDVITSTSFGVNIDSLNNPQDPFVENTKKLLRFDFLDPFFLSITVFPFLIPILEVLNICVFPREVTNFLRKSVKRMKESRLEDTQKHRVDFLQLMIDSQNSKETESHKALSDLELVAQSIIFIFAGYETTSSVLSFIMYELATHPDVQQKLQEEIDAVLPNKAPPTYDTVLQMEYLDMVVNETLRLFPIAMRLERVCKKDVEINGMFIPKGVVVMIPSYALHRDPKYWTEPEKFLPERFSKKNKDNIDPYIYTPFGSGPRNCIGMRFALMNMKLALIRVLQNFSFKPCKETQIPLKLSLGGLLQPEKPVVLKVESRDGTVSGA
# procedure.details: Inhibition of CYP3A4 in human liver microsome
# Type: ADME, microsomes
measured.quantity: IC50 (µM)

structure.string	data.value
COCCCc1ccc(Cl)c(CN(C(=O)[C@@H](CN)Cc2ccc(OCCOc3c(Cl)cc(C)cc3Cl)cc2)C2CC2)c1	14

====

Quick list: IC50 shift per entry.
# experimental.target: CYP3A4 (Homo sapiens, UniProt P08684)
# procedure.details: Ratio of IC50 for human CYP3A4 without preincubation to IC50 for human CYP3A4 preincubated for 30 mins
# condition.description: read-out: Ratio IC50

structure.string	relation.symbol	IC50 shift
COCCc1ccc(Cl)c(C[C@@H](C[C@@H](CN)Cc2ccc(OCCOc3c(Cl)cc(C)cc3Cl)cc2)C2CC2)c1	=	1.7
COCCc1ccc(Cl)c(C[C@H](C[C@@H](CN)Cc2ccc(OCCOc3c(Cl)cc(C)cc3Cl)cc2)C2CC2)c1	=	3.5
Cc1cc(Cl)c(OCCOc2ccc(C[C@H](CN)C(=O)N(Cc3cc(CCS(C)(=O)=O)ccc3Cl)C3CC3)cc2)c(Cl)c1	=	50
Cc1cc(Cl)c(OCCOc2ccc(C[C@H](CN)C(=O)N(Cc3cc(CCCC#N)ccc3Cl)C3CC3)cc2)c(Cl)c1	=	120
COCCc1ccc(Cl)c(CN(C(=O)[C@H](Cc2ccc(OCCOc3c(Cl)cc(C)cc3Cl)cc2)[C@H](C)N)C2CC2)c1	=	60
COCCc1ccc(Cl)c(CN(C(=O)[C@@H](CN)Cc2ccccc2)C2CC2)c1	=	120
COCCc1ccc(Cl)c(CN(C(=O)[C@H](Cc2ccc(OCCOc3c(Cl)cc(C)cc3Cl)cc2)C(N)=O)C2CC2)c1	=	55
COCCCc1cc(CN(C(=O)[C@@H](CN)Cc2ccc(OCCOc3c(Cl)cc(C)cc3Cl)cc2)C2CC2)cc(OCCN2CCOCC2)c1	<	1
